Each entry below lists one item and its recorded inhibition value.
Assay: RCMB18 cell growth, single agent and combined, cisplatin and BGB IC40 combos (AID 1671462);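 note: cells exposed to compound for four days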
Details: RCMB18 medulloblastoma cells, measured here: combination with cisplatin, at 0.5 µM, stronger effect = higher value
Show the value, then the unit it is measured in.

A selection of reference data follows.
SMILES NOTATION	VALUE OBSERVED
O=NN(CCCl)C(=O)NCCCl	22.9%
C[C@H]1COc2c(C3(N)CC3)c(F)cc3c(=O)c(C(=O)O)cn1c23	-24.3%
CN(C)c1ccc(C(=C2C=CC(=[N+](C)C)C=C2)c2ccc(N(C)C)cc2)cc1	59.9%
CCn1cc(C(=O)O)c(=O)c2cc3c(cc21)OCO3	16.7%
O=C(O)CCCCCCCC(=O)O	-13.4%
Cc1ccnc2c1NC(=O)c1cccnc1N2C1CC1	5.5%
O=c1c(O)c(-c2ccc(O)c(O)c2)oc2cc(O)cc(O)c12	6.44%

In: Which value of inhibition has been reported for Nc1nc(=S)c2[nH]cnc2[nH]1 in the records?
Out: 12.6%
